Target: T1, murine mesothelin (recombinant) (murine, UniProt Q61468 298-600, limits assumed)
T1 construct: Covalently immobilized on the Biacore chip
T1 sequence (looked up): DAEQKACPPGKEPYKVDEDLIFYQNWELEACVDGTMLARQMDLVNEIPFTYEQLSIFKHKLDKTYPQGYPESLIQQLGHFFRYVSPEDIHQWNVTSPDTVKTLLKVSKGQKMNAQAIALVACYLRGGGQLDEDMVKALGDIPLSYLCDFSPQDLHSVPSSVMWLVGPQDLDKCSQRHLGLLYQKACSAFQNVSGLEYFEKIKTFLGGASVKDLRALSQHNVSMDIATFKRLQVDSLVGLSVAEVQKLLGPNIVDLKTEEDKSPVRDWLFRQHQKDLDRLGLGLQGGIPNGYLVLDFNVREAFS
Experiment: SPR (Biacore 3000), Fab on covalently immobilized murine mesothelin
metric: koff (s⁻¹)
Value expressed in s⁻¹; do not type the unit.

# annotated cases, reported koff shown
| binder | metric | unit_text | reading |
| --- | --- | --- | --- |
| MOR06657 Fab (Fab, V domains shown, Purified Fab) VH: QVQLVQSGAEVKKPGSSVKVSCKASGGTFSSYYFSWVRQAPGQGLEWMGGIIPKFGSANYAQKFQGRVTITADESTSTAYMELSSLRSEDTAVYYCARRTSMDYWGQGTLVTVSS VL: DIALTQPASVSGSPGQSITISCTGTSSDVGGYNYVSWYQQHPGKAPKLMIYSVSKRPSGVSNRFSGSKSGNTASLTISGLQAEDEADYYCATWDHSQMGKVFGGGTKLTVLG | koff | s⁻¹ | 0.16 |
| MF-226 Fab (Fab, V domains shown, Purified Fab) VH: QVELVQSGAEVKKPGASVKVSCKASGYTFTGNYINWVRQAPGQGLEWMGIINPHGGDTKYAQKFQGRVTMTRDTSISTAYMELSSLRSEDTAVYYCARWHHGTWIFDYWGQGTLVTVSS VL: DIVLTQPPSVSGAPGQRVTISCSGSSSNIGSNYVSWYQQLPGTAPKLLIYNDNQRPSGVPDRFSGSKSGTSASLAITGLQSEDEADYYCSTYDRRTFSVFGGGTKLTVLG | koff | s⁻¹ | 0.14 |
| MF-A Fab (Fab, V domains shown, Purified Fab) VH: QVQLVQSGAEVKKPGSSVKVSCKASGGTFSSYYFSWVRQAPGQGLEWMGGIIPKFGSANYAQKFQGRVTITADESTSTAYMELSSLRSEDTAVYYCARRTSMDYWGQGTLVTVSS VL: DIALTQPASVSGSPGQSITISCTGTSSDVGGYNYVSWYQQHPGKAPKLMIYSVSKRPSGVSNRFSGSKSGNTASLTISGLQAEDEADYYCGAWAHMSLGKVFGGGTKLTVLG | koff | s⁻¹ | 0.27 |

Continue with the binder presented below.
Prompt: For MOR06638 Fab (Fab, V domains shown, Purified Fab) VH: QVQLVQSGAEVKKPGASVKVSCKASGYTFTGNYINWVRQAPGQGLEWMGIINPHGGDTKYAQKFQGRVTMTRDTSISTAYMELSSLRSEDTAVYYCARWHHGTWIFDYWGQGTLVTVSS VL: DIVLTQPPSVSGAPGQRVTISCSGSSSNIGSNYVSWYQQLPGTAPKLLIYNDNQRPSGVPDRFSGSKSGTSASLAITGLQSEDEADYYCSSWDRADGSYVFGGGTKLTVLG , what is its reported koff?
Completion: 0.04
